Origin of the recorded values: PubChem BioAssay (NCATS)

Task for the reader: assign each of the following compounds its reported activity change, negative = inhibition.
Test: qHTS Assay for Lipid Storage Modulators (AID 1519); further: on the % scale 0 is the no-effect control and ±100 the full control effect
Details: Drosophila S3 cells, BODIPY lipid droplet/cell ratio, laser cytometry; at 57.5 µM (top of the series); cells loaded with oleic acid
Experimental: NIH Molecular Libraries Probe Production Centers Network [MLPCN] NIH Chemical Genomics Center [NCGC] Assay Submitter (PI): Beller, Mathias; Max-Planck-Institut fur Biophysikalische Chemie […] We dispensed 4 uL of cells at 1.25 x 10^6 cells/mL into LoBase Aurora COC 1,536-well plates (black walled, clear bottom) with a bottle-valve solenoid-based dispenser (Aurora) to obtain 5,000 cells/well. […] The ratio of the total intensity in PMT channel 1 over total intensity of channel 3 was also calculated. […]
Results filed as inconclusive are left out.
State the answer as a number, implicitly in %.

Query block: Requested read-out: activity change, negative = inhibition. Entry: Cn1c(=O)c(-c2cccs2)nc2cnc(OCc3ccccc3)nc21
Result block: 6.88

Query block: Input COc1cccc(-c2cc(N(C)Cc3ccco3)ncn2)c1
Result block: 8.28

Query block: // next record N#Cc1ccccc1-c1nc(NCCN2CCOCC2)c2ccccc2n1
Result block: 4.61

Query block: Next up: CC(=O)N1CCC2(CC1)CN(c1ccccc1)C2
Result block: 6.65

Query block: // next record O=C(Nc1cccc(F)c1)N1CCCC2(CCN(S(=O)(=O)c3ccccc3)CC2)C1
Result block: 1.65

Query block: What do we get for Cc1cccc(CNc2ccnc(-c3cccnc3)n2)c1 ?
Result block: 8.22
